The entries below are paired with their reported EC50.
# measured-target: UniProtKB P07550
# Sequence (P07550 whole entry): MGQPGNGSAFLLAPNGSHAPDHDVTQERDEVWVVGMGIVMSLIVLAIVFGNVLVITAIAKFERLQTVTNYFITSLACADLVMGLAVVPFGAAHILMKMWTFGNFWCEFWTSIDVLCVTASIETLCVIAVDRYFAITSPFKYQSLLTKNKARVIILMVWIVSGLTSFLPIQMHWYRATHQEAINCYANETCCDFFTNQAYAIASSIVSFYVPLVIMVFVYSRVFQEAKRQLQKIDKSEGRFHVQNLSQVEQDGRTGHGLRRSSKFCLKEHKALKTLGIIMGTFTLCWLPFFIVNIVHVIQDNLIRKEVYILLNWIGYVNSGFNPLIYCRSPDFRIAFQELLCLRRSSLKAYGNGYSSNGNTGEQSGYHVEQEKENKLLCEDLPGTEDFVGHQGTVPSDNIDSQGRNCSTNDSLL
# protocol: Assay for determining adrenergic receptor agonist potency (cAMP Flashplate, HEK-293 cells)
# settings: data rounded to nearest 1 nM

Req: Can you share its EC50? I mean this molecule: COc1cc(CNC[C@H](O)c2ccc(O)c3[nH]c(=O)ccc23)ccc1NC(=O)c1cccc(N(C)C(=O)CCN2CCC(OC(=O)Nc3ccccc3-c3ccccc3)CC2)c1 [Compound I-29]
Resp: 1 nM

Req: Now this one: COc1ccc(CNC(=O)Cc2ccc(N(C)C(=O)CCN3CCC(OC(=O)Nc4ccccc4-c4ccccc4)CC3)cc2)cc1CC(C)NC[C@H](O)c1ccc(O)c2[nH]c(=O)ccc12 (stereo partly drawn) [Compound I-72]
Resp: 4 nM

Req: Now this one: COc1ccc(CC(=O)NCc2ccc(N(C)C(=O)CCN3CCC(OC(=O)Nc4ccccc4-c4ccccc4)CC3)cc2)cc1CC(C)NC[C@H](O)c1ccc(O)c2[nH]c(=O)ccc12 (stereo partly drawn) [Compound I-81]
Resp: 1 nM
